biological target: fWL, fluorescently labelled H14 foldamer WL; assay: fluorescence polarisation; direct FP: S100 protein diluted in 50 nM labeled foldamer, 20 mM HEPES pH 7.5, 150 mM NaCl, 1 mM CaCl2, 0.5 mM TCEP, 0.01% Tween20; quadratic fit (ProFit); detection threshold Kd 1 mM
Test readout: Kd

Recorded Kd, per entry:
Binder	Result
S100A9 (natural protein) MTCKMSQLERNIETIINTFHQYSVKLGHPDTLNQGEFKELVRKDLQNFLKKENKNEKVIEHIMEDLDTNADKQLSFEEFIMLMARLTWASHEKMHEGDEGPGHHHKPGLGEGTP	> 1 mM
S100G (natural protein) MSTKKSPEELKRIFEKYAAKEGDPDQLSKDELKLLIQAEFPSLLKGPNTLDDLFQELDKNGDGEVSFEEFQVLVKKISQ	> 1 mM
S100A16 (natural protein) MSDCYTELEKAVIVLVENFYKYVSKYSLVKNKISKSSFREMLQKELNHMLSDTGNRKAADKLIQNLDANHDGRISFDEYWTLIGGITGPIAKLIHEQEQQSSS	0.3 mM

Now look at this one.
Note to self: Kd recorded for S100A3 (natural protein) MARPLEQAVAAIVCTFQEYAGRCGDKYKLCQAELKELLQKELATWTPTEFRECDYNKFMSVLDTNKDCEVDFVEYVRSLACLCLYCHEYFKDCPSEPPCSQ was > 1 mM
